Substrate: C1O[C@H]1[C@H]1CO1
Assay: purified protein
Details: 5 mM GSH, 0.10 M Tris-HCl pH 7.7, 37 °C, 1 h
// reported Km for each item listed
All answers are understood in µM, so give the number only.

human GST P1-1 (Homo sapiens) (protein) PPYTVVYFPVRGRCAALRMLLADQGQSWKEEVVTVETWQEGSLKASCLYGQLPKFQDGDLTLYQSNTILRHLGRTLGLYGKDQQEAALVDMVNDGVEDLRCKYISLIYTNYEAGKDDYVKALPGQLKPFETLLSQNQGGKTFIVGDQISFADYNLLDLLLIHEVLAPGCLDAFPLLSAYVGRLSARPKLKAFLASPEYVNLPINGNGKQ: 910
human GST A3-3 (Homo sapiens) (protein) AGKPKLHYFNGRGRMEPIRWLLAAAGVEFEEKFIGSAEDLGKLRNDGSLMFQQVPMVEIDGMKLVQTRAILNYIASKYNLYGKDIKERALIDMYTEGMADLNEMILLLPLCRPEEKDAKIALIKEKTKSRYFPAFEKVLQSHGQDYLVGNKLSRADISLVELLYYVEELDSSLISNFPLLKALKTRISNLPTVKKFLQPGSPRKPPADAKALEEARKIFRF: 510
human GST A1-1 (Homo sapiens) (protein) AEKPKLHYFNARGRMESTRWLLAAAGVEFEEKFIKSAEDLDKLRNDGYLMFQQVPMVEIDGMKLVQTRAILNYIASKYNLYGKDIKERALIDMYIEGIADLGEMILLLPVCPPEEKDAKLALIKEKIKNRYFPAFEKVLKSHGQDYLVGNKLSRADIHLVELLYYVEELDSSLISSFPLLKALKTRISNLPTVKKFLQPGSPRKPPMDEKSLEEARKIFRF: 320
human GST M1-1 (Homo sapiens) (protein) PMILGYWDIRGLAHAIRLLLEYTDSSYEEKKYTMGDAPDYDRSQWLNEKFKLGLDFPNLPYLIDGAHKITQSNAILCYIARKHNLCGETEEEKIRVDILENQTMDNHMQLGMICYNPEFEKLKPKYLEELPEKLKLYSEFLGKRPWFAGNKITFVDFLVYDVLDLHRIFEPKCLDAFPNLKDFISRFEGLEKISAYMKSSRFLPRPVFSKMAVWGNK: 810
rat GST 5-5 (Rattus norvegicus) (protein) VLELYLDLLSQPCRAIYIFAKKNNIPFQMHTVELRKGEHLSDAFAQVNPMKKVPAMKDGGFTLCESVAILLYLAHKYKVPDHWYPQDLQARARVDEYLAWQHTTLRRSCLRTLWHKVMFPVFLGEQIRPEMLAATLADLDVNVQVLEDQFLQDKDFLVGPHISLADVVAITELMHPVGGGCPVFEGRPRLAAWYRRVEAAVGKDLFLEAHEVILKVRDCPPADPVIKQKLMPRVLTMIQ: 800

Now look at this entry.
Exercise: Could you tell me which Km is on file for human GST T1-1 (Homo sapiens) (protein) GLELYLDLLSQPCRAVYIFAKKNDIPFELRIVDLIKGQHLSDAFAQVNPLKKVPALKDGDFTLTESVAILLYLTRKYKVPDYWYPQDLQARARVDEYLAWQHTTLRRSCLRALWHKVMFPVFLGEPVSPQTLAATLAELDVTLQLLEDKFLQNKAFLTGPHISLADLVAITELMHPVGAGCQVFEGRPKLATWRQRVEAAVGEDLFQEAHEVILKAKDFPPADPTIKQKLMPWVLAMIR ?
Key: 930
